# assayed system: T1, human prolactin receptor (PRLR) (human, UniProt P16471 25-622)
# T1 sequence: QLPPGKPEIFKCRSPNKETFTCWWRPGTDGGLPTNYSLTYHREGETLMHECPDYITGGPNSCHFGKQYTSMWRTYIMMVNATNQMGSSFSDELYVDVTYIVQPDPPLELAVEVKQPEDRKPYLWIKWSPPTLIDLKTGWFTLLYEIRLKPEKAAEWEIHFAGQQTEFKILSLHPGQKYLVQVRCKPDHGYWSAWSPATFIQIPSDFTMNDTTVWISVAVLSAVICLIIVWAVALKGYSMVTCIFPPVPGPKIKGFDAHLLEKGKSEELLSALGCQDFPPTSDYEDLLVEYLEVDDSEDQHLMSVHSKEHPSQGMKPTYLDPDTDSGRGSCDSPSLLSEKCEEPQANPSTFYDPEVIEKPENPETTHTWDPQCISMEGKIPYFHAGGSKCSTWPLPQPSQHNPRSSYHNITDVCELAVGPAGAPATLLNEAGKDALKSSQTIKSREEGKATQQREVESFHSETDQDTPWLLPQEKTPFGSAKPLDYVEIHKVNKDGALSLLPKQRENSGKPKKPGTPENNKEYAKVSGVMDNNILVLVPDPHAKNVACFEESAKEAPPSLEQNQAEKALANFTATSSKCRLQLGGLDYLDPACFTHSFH
# procedure details: cell-based or functional assay
observation type: % Kill, PC3/PRLR cells (%)

[
  {
    "binder": "H1H6765P-DM1 (antibody, human IgG1, V domains shown, DM1 conjugated through SMCC linker; attachment residues not stated) VH: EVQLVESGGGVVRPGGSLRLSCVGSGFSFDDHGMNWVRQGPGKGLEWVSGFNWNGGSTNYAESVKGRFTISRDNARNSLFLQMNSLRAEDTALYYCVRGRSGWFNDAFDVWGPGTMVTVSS VL: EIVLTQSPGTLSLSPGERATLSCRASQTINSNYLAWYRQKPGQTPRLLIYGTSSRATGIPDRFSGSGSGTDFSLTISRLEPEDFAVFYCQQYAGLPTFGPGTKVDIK",
    "measured": 70
  },
  {
    "binder": "H1H6782P-DM1 (antibody, human IgG1, V domains shown, DM1 conjugated through SMCC linker; attachment residues not stated) VH: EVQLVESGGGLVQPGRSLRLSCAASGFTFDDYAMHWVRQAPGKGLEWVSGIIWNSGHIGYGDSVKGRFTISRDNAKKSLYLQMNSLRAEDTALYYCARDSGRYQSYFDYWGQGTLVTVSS VL: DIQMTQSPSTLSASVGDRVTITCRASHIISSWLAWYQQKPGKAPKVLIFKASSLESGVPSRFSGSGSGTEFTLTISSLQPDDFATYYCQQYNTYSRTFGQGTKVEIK",
    "measured": 64
  }
]
